Taken from a melting point compilation (Tetko et al.; mined from patent text by program, amines drawn as free bases though some values may be those of a salt).

Molecule: COC(=O)c1ccc2c(c1)OCC2(C)Cc1ccccc1 (centres undefined)
melting point: 52 °C
//
Molecule: Cc1ncccc1NC(=NC#N)NC(NC(=O)CCCc1cccs1)C(C)(C)C (centres undefined)
melting point: 66 to 68 °C
//
Molecule: c1ccc(N(c2ccccc2)c2cccc3cc(-c4nc5ccccc5s4)ccc23)cc1
melting point: 186 to 187 °C
//
Molecule: CCC(CC)=NOC(=O)c1cc(-n2c(=O)cc(C(F)(F)F)n(C)c2=O)c(F)cc1Cl
melting point: 128 to 130 °C
//
Molecule: CCC(=O)Nc1ccc(Br)c(-n2nc(CC)n(Cc3ccc(-c4ccccc4S(=O)(=O)NC(=O)OC(C)(C)C)cc3F)c2=O)c1
melting point: 146 to 148 °C
//
Molecule: COc1ccc(-c2ncccc2O)cc1OC
melting point: 150 to 155 °C
//
Molecule: O=C(OCc1cc(COC(=O)c2ccc(O)c(F)c2)cc(COC(=O)c2ccc(O)c(F)c2)c1)c1ccc(O)c(F)c1
melting point: 88 °C
//
Molecule: CCCOc1cc(CCC(=O)O)ccc1OCCCc1cn(-c2ccc(C(F)(F)F)cn2)nc1OCC
melting point: 106 to 107 °C
//
Molecule: COc1cc(Nc2c(C#N)cnc3cc(/C=C/CCO)c(OC)cc23)c(Cl)cc1Cl
melting point: 186 to 188 °C

====

# reported melting point; entries follow

Entry smiles: COc1ccc(S(=O)(=O)Nc2nc(-c3cccc([N+](=O)[O-])c3)c(CN3CCOCC3)s2)cc1OC
melting point (°C): 143
--
Entry smiles: CN(c1ccc(Cl)cc1)S(=O)(=O)c1cn(S(=O)(=O)N(C)C)cn1
melting point (°C): 132

====

Quantity name: melting point

Molecule: CSc1nc2ccnn2c(N)c1C#N
Test result: > 240 °C

Molecule: Cc1nc2c3c(ccn2c1C)C(=O)C(O)C(c1ccsc1)N3 (stereo not given)
Test result: 222 to 225 °C

Molecule: O=C(Nc1ccc2[nH]c(=S)oc2c1)C(=O)N1CCC(Cc2ccccc2)CC1
Test result: 203 °C

Molecule: O=C(Nc1ccc([N+](=O)[O-])cc1)N1CCN(c2ncnc3ccccc23)CC1
Test result: 155 to 158 °C

Molecule: CCCCOC(=O)c1cn(CC)c2nc(N3CCNCC3)c(F)cc2c1=O
Test result: 119 to 120 °C

====

# reported melting point; entries follow

Compound: O=C(O)CCC1(CCC(=O)O)CCCCC(CCC(=O)O)(CCC(=O)O)C1=O
melting point: 230 to 232 °C
--
Compound: COc1nc(C)c(C)nc1NC(=O)N1CCN(c2ccccc2C(C)C)CC1
melting point: 165 to 167 °C
--
Compound: CCN1C(=O)C(C(=O)Nc2cccc(C(=O)Nc3ccc(Cl)cc3)c2)c2cc(C(C)=O)ccc21 (centres undefined)
melting point: 119 to 121 °C
--
Compound: CCN(CC)CCc1cccc(Nc2ncc3c(n2)N(c2cccc(C#N)c2)C(=O)N(c2ccc(OC)cc2)C3C)c1 (centres undefined)
melting point: 128 to 145 °C
--
Compound: O=C1C(=O)N(Cc2ccc(Nc3ncccn3)cc2)CCN1Cc1ccc(Nc2ncccn2)cc1
melting point: 226 to 228 °C
--
Compound: CC1(CN(c2ccc(Cl)cc2)S(C)(=O)=O)OCCO1
melting point: 84 to 85 °C
--
Compound: CC(C)(C)OC(=O)N1CCc2c(n(CCOc3ccccc3)c3c(Cl)c(Cl)ccc23)CC1
melting point: 138 to 140 °C
--
Compound: Cc1c(NC(=O)OCCCl)cc([N+](=O)[O-])c(N)c1C
melting point: 151 °C
--
Compound: CN(C)NC1=C2N=c3cc(Cl)ccc3=C2Oc2ccccc2N1C
melting point: 196 to 197 °C

====

# reported melting point; entries follow

Entry smiles: CCc1nn(C2CCCC2)c2cc(C(=O)NCCc3ccncc3)ccc12
melting point: 123 to 126 °C

Entry smiles: CCOC(=O)COc1cc(O)c2c(c1)NC1(CCCCC1)CC2=O
melting point: 134 to 135 °C

Entry smiles: CC(=O)NC[C@H]1CN(c2ccc(N3CCC(n4cc(C#N)nn4)CC3)c(F)c2)C(=O)O1
melting point: 148 to 150 °C

Entry smiles: O=C1CCC(c2ccc(CO)cc2)CC1
melting point: 58 to 60 °C

Entry smiles: N#CCCCCN1C(=NCCCn2ccnc2)c2cccc3cccc1c23
melting point: 76 to 78.5 °C

Entry smiles: N#Cc1ccc2c(c1)N(C1CC1)C=NS2(=O)=O
melting point: 273 to 276 °C

Entry smiles: COc1ccc2c3cc(C)ccc3n(CC3CCCCC3)c2c1
melting point: 136 to 137 °C

Entry smiles: CC(C)NC(=O)Nc1ccc(Cl)cc1C(=O)c1ccccc1
melting point: 190 to 192 °C

Entry smiles: COc1ccc(C(=O)C=Cc2cc(O)c(O)c([N+](=O)[O-])c2)cc1
melting point: 222 to 228 °C

Entry smiles: CC(C)c1ccc(-c2nc(COc3ccc(OC(C)(C)C(=O)O)cc3)no2)cc1
melting point: 103 °C

====

Compound: CCOP(=O)(Cc1cccc(-c2nc(=O)c3ccccc3s2)n1)OCC
melting point: 116 °C
--
Compound: COc1ccc(Cn2c(=O)c(C(=O)NC3CCCCC3)c(O)c3cc(F)cnc32)cc1
melting point: 176 °C
--
Compound: O=C(O)c1c(NCc2ccccc2)nc2ccc(Br)cc2c1Cl
melting point: 182 to 184 °C
--
Compound: OCC1OC(Oc2ccsc2Cc2ccc(OC(F)(F)F)cc2)C(O)C(O)C1O (stereo not given)
melting point: 144 to 145 °C
--
Compound: CCOC(=O)C(O)=CC(=O)c1c[nH]c2ccccc12
melting point: > 300 °C

====

# reported melting point; entries follow
Quantity name: melting point

Compound: O=[N+]([O-])c1ccccc1Oc1ccc(Cl)cc1Cl
Test result: 54 to 55 °C

Compound: CCCCSc1nc(CCC)n(Cc2ccc(-c3ccccc3S(=O)(=O)NC(=O)NCc3ccccc3)cc2)c1C(=O)C(=O)O
Test result: 192 °C

Compound: COc1cccc(N(CCN2CCC(C(=O)c3ccc(F)cc3)CC2)C(=O)c2ccc(N)cc2)c1
Test result: 126 to 128 °C

Compound: CS(=O)(=O)C1(F)Cc2cc(Cl)ccc2C1=O (stereo unspecified)
Test result: 150 °C

Compound: COc1ccc(CSc2ncn(Cc3cc4c(cc3Cl)OCO4)c2C(=O)O)cc1
Test result: 195 °C

Compound: O=Cc1ncn2c1[C@@H]1CCCN1C(=O)c1c(Cl)cccc1-2
Test result: 224 to 225 °C

Compound: Cc1ccc(C2c3c(C)c(N4Cc5cc(Cl)c(Cl)cc5C4)c(C)c(C)c3OC2(C)C)cc1 (stereo unspecified)
Test result: 201 to 203 °C

Compound: CCOC(Cc1ccc(NCCCC2=CCC(NS(C)(=O)=O)(OC(C)(C)C)C=C2)cc1)C(=O)O (stereo unspecified)
Test result: 78 to 80 °C

Compound: CCC(CC)n1cc(Br)nc(N2CCc3cc(Cl)cc(Cl)c32)c1=O
Test result: 158 to 160 °C

Compound: O=[N+]([O-])c1cc(Cl)c(O)cc1OCCO
Test result: 159 °C

Compound: Cn1c(=O)c(=O)[nH]c2cccnc21
Test result: 238 to 239 °C

Compound: N#Cc1cnc2cc(C=O)sc2c1Cl
Test result: 188 to 189 °C

Compound: CC(C)(C)OC(=O)C(Br)c1ccc(Cl)c(Cl)c1 (racemic)
Test result: 88 °C

Compound: COc1ccc(Cl)cc1C(CC(=O)O)c1ccccc1 (stereo unspecified)
Test result: 144 °C

Compound: COc1cc(C)c(C(=O)CCCCCCCCCCCCCCCCCCCCC(=O)O)c(O)c1OC
Test result: 103 to 150 °C

Compound: CCCCCCCCCCc1cc2c(s1)-n1c(C)nnc1CN=C2c1ccccc1OC
Test result: 90 to 92 °C

Compound: COC(=O)C#CC(=O)c1ccc(OC)cc1
Test result: 68 °C

Compound: COc1ccccc1OC1CCN(c2nc(-c3ccccc3)nc3ccccc23)C1 (stereo unspecified)
Test result: 142 to 144 °C

Compound: CCCOc1cc2[nH]c(=O)[nH]c(=O)c2cc1OC
Test result: 259 to 261 °C

Compound: CN1CCC(OC2c3cccc(Cc4ccccc4)c3CCn3cc(-c4ccccc4)nc32)CC1 (stereo unspecified)
Test result: 66 °C

Compound: COC(=O)c1ccc2c(=O)c(Cc3ccccc3)coc2c1
Test result: 98 to 100 °C

====

# reported melting point; entries follow

Molecule: CC(=O)OC1CCC2(C)C(CCC3C2CCC2(C)C(=O)CCC32O)C1 (stereo not given)
melting point: 182 to 184 °C
--
Molecule: CCOC(=O)c1cn(C2COC2)c2c(F)c(F)c(F)cc2c1=O
melting point: 146 to 147 °C
--
Molecule: CC(=NC(C)c1ccc(Cl)cc1Cl)c1ccc(Cl)cc1Cl (stereo not given)
melting point: 77 to 85 °C
--
Molecule: CCCCCCCCCC(=O)Nc1ccc(S(=O)(=O)Nc2nnc(C(C)(C)C)s2)cc1
melting point: 156 to 157 °C
--
Molecule: CNC(=O)C(C)Oc1ccc(Oc2ccc(Cl)cc2)cc1 (stereo not given)
melting point: 117 to 118 °C
